Reported IC50 values are given for each entry in this list.
Target: purified recombinant human GAC (GLS1) (Homo sapiens (Human))
Sequence (O94925 other isoform, or with tags, fused parts or gaps): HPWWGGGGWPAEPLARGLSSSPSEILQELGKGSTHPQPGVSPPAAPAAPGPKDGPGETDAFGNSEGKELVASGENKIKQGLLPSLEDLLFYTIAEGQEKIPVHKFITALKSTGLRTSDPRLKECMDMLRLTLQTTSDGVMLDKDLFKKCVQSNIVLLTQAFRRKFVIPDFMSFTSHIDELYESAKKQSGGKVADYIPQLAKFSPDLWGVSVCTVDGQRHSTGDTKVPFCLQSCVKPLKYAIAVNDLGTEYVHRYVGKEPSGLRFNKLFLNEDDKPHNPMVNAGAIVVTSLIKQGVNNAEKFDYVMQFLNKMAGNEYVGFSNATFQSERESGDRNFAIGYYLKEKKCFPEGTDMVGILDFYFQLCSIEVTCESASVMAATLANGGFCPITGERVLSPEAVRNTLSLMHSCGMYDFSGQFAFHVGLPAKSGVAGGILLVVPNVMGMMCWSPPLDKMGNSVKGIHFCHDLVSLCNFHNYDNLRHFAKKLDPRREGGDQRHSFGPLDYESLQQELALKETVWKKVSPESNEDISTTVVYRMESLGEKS
Test: GLS1 Enzymatic Activity Assay (dual-coupled enzymatic assay, resorufin/Amplex UltraRed readout);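 note: glutamate from GAC coupled via glutamate oxidase and peroxidase to resorufin, read as fluorescence (ex 530, em 590 nm) kinetically or at 20 min, four-parameter logistic IC50 fit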
property_label: IC50

- O=C(NCc1cc(OC(F)(F)F)ccc1F)c1cn(CCC(F)Cn2cc(C(=O)NCc3cc(C(F)(F)F)ccn3)nn2)nn1 (centres unmarked) [Example 426]: < 100 nM
- O=C(CN1CC(F)C1)Nc1cn(CCCCn2cc(C(=O)NCc3cc(Cl)ccc3F)nn2)nn1 [Example 349]: 100 to 500 nM
- O=C(Cc1cccc(OC(F)(F)F)c1)Nc1nnc(CCCCn2cc(C(=O)NCCO)nn2)s1 [Example 17]: 100 to 500 nM
- CNC(=O)c1cn(C[C@H](F)CCc2nnc(C(=O)NCc3cc(C(F)(F)F)ccn3)s2)nn1 (single isomer, unassigned) [Example 221]: 100 to 500 nM
- O=C(Cc1cccnc1)Nc1cn(CCCCn2cc(C(=O)NCC3CC3)nn2)nn1 [Example 303]: 500 to 5000 nM
- CNC(=O)c1cn(CC(F)CCc2ccc(NC(=O)Cc3cc(OC(F)F)ccn3)nn2)nn1 (centres unmarked) [Example 274]: < 100 nM
- Cc1ccc(CNC(=O)c2cn(CCC(F)Cn3cc(NC(=O)Cc4ccc(C)nc4)nn3)nn2)cn1 (centres unmarked) [Example 346]: < 100 nM
- CC(=O)Nc1ccc(CCCCc2nnc(C(=O)NCc3cccc(OC(F)(F)F)c3)s2)nn1 [Example 599]: < 100 nM
